test system: 786-0; assay: NCI tumour cell line growth inhibition, 48 h
Activity calls are given as the source filed them. Rule as the data show it: active = GI50 up to about 1.1 µM and inactive = higher.
recorded-endpoint: GI50

// below: answered compounds
COC(=O)[C@@H]1COC(=O)N1	> 100 µM (inactive)
CSC1C=C(C(C)C)CCC1(C)SC (stereo unspecified)	17.8 µM (inactive)

Next compound, please.
Prompt: Which measured GI50 value corresponds to CSc1nc(C#N)c(/N=C\N(C)C)n1C ?
Completion: > 100 µM (inactive)

---

The following compounds are listed with their measured GI50 values.
system: HL-60; assay: NCI tumour cell line growth inhibition, 48 h
Active and inactive are the calls of the source. Rule as the data show it: active = GI50 up to about 1.1 µM and inactive = higher.

// below: answered compounds
CC(=O)O[C@@H]1C2C(=O)OC(=O)C2C2CCC[C@]23O[C@H]13 (some centres not stated)	> 100 µM (inactive)
CNC(=O)C1(N)c2ccccc2C=Cc2ccccc21	> 100 µM (inactive)
COc1ccc(-c2cn3c(n2)sc2cc(C)ccc23)cc1	3.45 µM (inactive)
CN(C)c1ccc(C2SCC(=O)N2NS(=O)(=O)c2cccc(C(=O)O)c2)cc1 (configuration not stated)	16.3 µM (inactive)
CCn1c(-c2ccc(OC)cc2)nc2c1C(=O)c1ccccc1C2=O	> 100 µM (inactive)

Next compound, please.
Prompt: Which measured GI50 value corresponds to CCCC/N=C(/c1ccccc1)N1CCOCC1 ?
Completion: > 100 µM (inactive)
